Organism: Rattus norvegicus
TEST NAME: DrugMatrix - Regimen: Daily Repeat
Format: toxicity, organism-based, Sprague-Dawley
Parameters: regimen Daily Repeat, gender Male, age 6-8 weeks
ASSAY CONDITIONS: in vivo, po, 0 mg/kg, 72 h, tissue Blood, route oral GAVAGE, dose level Control, time 3 day, […]
Quick reference for ABSOLUTE LYMPHOCYTE among some compounds
Enter your answer as a number in CELLS/uL; do not include the unit.

Known results for compounds:
INSERT INTO results (compound, measurement_unit, measured_number) VALUES
  ('NC[C@@H]1O[C@H](O[C@H]2[C@@H](O)[C@H](O[C@@H]3[C@@H](O)[C@H](N)C[C@H](N)[C@H]3O[C@H]3O[C@H](CN)[C@@H](O)[C@H](O)[C@H]3N)O[C@@H]2CO)[C@H](N)[C@@H](O)[C@@H]1O [FRAMYCETIN]', 'CELLS/uL', 9048.5),
  ('CC[C@H](C)C(=O)O[C@H]1C[C@@H](C)C=C2C=C[C@H](C)[C@H](CC[C@@H]3C[C@@H](O)CC(=O)O3)[C@H]21 [LOVASTATIN]', 'CELLS/uL', 9105.33);

--- query ---
// sample CC(C)Cc1ccc(CC(=O)O)cc1 [IBUFENAC] , its ABSOLUTE LYMPHOCYTE was 11617.83
